From: paper PMC3794980

Listing: pIC50 of selected molecules
Target: DRB3*0101 (Homo sapiens, UniProt P01903+P79483)
Assay: biochemical
pIC50 field: float, defined as -log10 of concentration (mol/L).

{"compound_structure": "CC[C@H](C)[C@H](NC(=O)[C@H](CO)NC(=O)[C@@H]1CCCN1C(=O)[C@@H](NC(=O)[C@H](Cc1ccccc1)NC(=O)[C@H](Cc1c[nH]c2ccccc12)NC(=O)[C@@H](NC(=O)[C@@H](NC(=O)[C@H](CCCCN)NC(=O)CNC(=O)[C@H](C)NC(=O)[C@H](Cc1ccccc1)NC(=O)[C@H](CC(=O)O)NC(=O)[C@@H](N)[C@@H](C)O)[C@@H](C)O)C(C)C)C(C)C)C(=O)N[C@@H](CCCCN)C(=O)O", "quantity": "pIC50", "obs_value": 4.80}

// next item, pIC50 requested
Find the recorded pIC50 belonging to CC[C@H](C)[C@H](NC(=O)[C@H](CC(=O)O)NC(=O)[C@H](CCSC)NC(=O)[C@@H](N)C(C)C)C(=O)N[C@H](C(=O)N[C@@H](CO)C(=O)N[C@@H](CCCNC(=N)N)C(=O)N[C@@H](CCCCN)C(=O)N[C@@H](CC(=O)O)C(=O)N[C@@H](CCC(N)=O)C(=O)N[C@@H](CCCNC(=N)N)C(=O)NCC(=O)N[C@@H](CO)C(=O)NCC(=O)N[C@@H](CCC(N)=O)C(=O)N[C@H](C(=O)NCC(=O)O)C(C)C)[C@@H](C)CC and report it.
5.37

====

Molecular target: DRB5*0101 (Homo sapiens, UniProt P01903+Q30154)
Assay: biochemical
Assay type: binding
Where no end group is shown, it is not given here.
Listing: pIC50 of selected sequences
pIC50 field: float, defined as -log10 of concentration (mol/L).

{"seq": "EGKVVQYENLKYTVI [Envelope 126-140]", "quantity": "pIC50", "obs_value": 5.61}
{"seq": "ALTGATEIQNSGGTS [Envelope 261-275]", "quantity": "pIC50", "obs_value": 5.44}
{"seq": "VTFKNAHAKKPEVVV [Envelope 236-250]", "quantity": "pIC50", "obs_value": 7.52}

Find the recorded pIC50 belonging to AILPEYGTLGLECSP [Envelope 171-185] and report it.
4.76

Find the recorded pIC50 belonging to LKKEVSETQHGTILV [Envelope 306-320] and report it.
4.90

Find the recorded pIC50 belonging to TRGAVLTYNGKRLEP [NS3 53-67] and report it.
6.48

Find the recorded pIC50 belonging to MRCVGVGNRDFVEGL [Envelope 1-15] and report it.
5.32

Find the recorded pIC50 belonging to LGSQEGAMHTALTGA [Envelope 251-265] and report it.
6.14

Find the recorded pIC50 belonging to TNTFVLKKEVSETQH [Envelope 301-315] and report it.
5.31

Find the recorded pIC50 belonging to GTILVKVEYKGEDAP [Envelope 316-330] and report it.
5.28

====

Biological target: DRB5*0101 (Homo sapiens, UniProt P01903+Q30154)
Experiment: biochemical
quantity: pIC50
pIC50 field: float, defined as -log10 of concentration (mol/L).

{"compound": "CC[C@H](C)[C@H](NC(=O)[C@H](CC(C)C)NC(=O)[C@H](CCCCN)NC(=O)CN)C(=O)N[C@@H](Cc1c[nH]cn1)C(=O)N[C@@H](CCC(=O)O)C(=O)N[C@@H](Cc1c[nH]c2ccccc12)C(=O)N[C@@H](CS)C(=O)N[C@@H](CS)C(=O)N[C@@H](CCCNC(=N)N)C(=O)N[C@@H](CO)C(=O)N[C@@H](CS)C(=O)N[C@H](C(=O)N[C@@H](CC(C)C)C(=O)N1CCC[C@H]1C(=O)O)[C@@H](C)O [NS1 305-319]", "obs_value": 5.21}

// next item, pIC50 requested
Find the recorded pIC50 belonging to CC[C@H](C)[C@H](NC(=O)[C@H](CC(=O)O)NC(=O)[C@H](CCSC)NC(=O)[C@@H](N)C(C)C)C(=O)N[C@H](C(=O)N[C@@H](CO)C(=O)N[C@@H](CCCNC(=N)N)C(=O)N[C@@H](CCCCN)C(=O)N[C@@H](CC(=O)O)C(=O)N[C@@H](CCC(N)=O)C(=O)N[C@@H](CCCNC(=N)N)C(=O)NCC(=O)N[C@@H](CO)C(=O)NCC(=O)N[C@@H](CCC(N)=O)C(=O)N[C@H](C(=O)NCC(=O)O)C(C)C)[C@@H](C)CC [NS5 588-604] and report it.
4.77

====

Target: DRB3*0101 (Homo sapiens, UniProt P01903+P79483)
Assay: biochemical
Assay type: binding
quantity: IC50 (nM)
Respond numerically; units are nM and should not be typed.

Answered examples (3):
{"compound_structure": "CC(C)C[C@H](NC(=O)[C@H](CCCCN)NC(=O)CNC(=O)[C@H](CC(C)C)NC(=O)[C@@H](N)Cc1c[nH]cn1)C(=O)N[C@@H](CCC(=O)O)C(=O)N[C@@H](CC(C)C)C(=O)N[C@@H](CC(=O)O)C(=O)N[C@@H](Cc1ccccc1)C(=O)N[C@@H](CC(N)=O)C(=O)N[C@@H](Cc1ccc(O)cc1)C(=O)N[C@@H](CS)C(=O)N[C@@H](CCC(=O)O)C(=O)NCC(=O)N[C@H](C(=O)O)[C@@H](C)O", "IC50 / nM": 71}
{"compound_structure": "CC[C@H](C)[C@H](NC(=O)[C@@H]1CCCN1C(=O)CNC(=O)[C@H](C)NC(=O)[C@H](CC(C)C)NC(=O)[C@H](CO)NC(=O)[C@H](CCCCN)NC(=O)[C@@H]1CCCN1C(=O)[C@@H](NC(=O)[C@@H](NC(=O)[C@H](CCSC)NC(=O)[C@H](CC(=O)O)NC(=O)[C@H](CO)NC(=O)[C@H](CCC(=O)O)NC(=O)[C@@H](N)CC(C)C)[C@@H](C)CC)[C@@H](C)CC)C(=O)O", "IC50 / nM": 2710}
{"compound_structure": "CC[C@H](C)[C@H](NC(=O)[C@H](C)NC(=O)[C@@H](NC(=O)[C@H](C)NC(=O)[C@H](CC(C)C)NC(=O)[C@H](CCCNC(=N)N)NC(=O)[C@H](CCCCN)NC(=O)[C@@H]1CCCN1C(=O)[C@H](CO)NC(=O)[C@H](CC(=O)O)NC(=O)[C@H](C)NC(=O)[C@H](CCC(N)=O)NC(=O)[C@H](Cc1ccccc1)NC(=O)[C@@H](N)CCCCN)[C@@H](C)O)C(=O)N[C@@H](C)C(=O)O", "IC50 / nM": 22}

Find the recorded IC50 belonging to CC[C@H](C)[C@H](NC(=O)[C@@H](N)C(C)C)C(=O)N[C@@H](CC(C)C)C(=O)N[C@H](C(=O)N[C@@H](CC(=O)O)C(=O)NCC(=O)N1CCC[C@H]1C(=O)N[C@@H](CCC(=O)O)C(=O)N[C@@H](CCCNC(=N)N)C(=O)N[C@H](C(=O)N[C@H](C(=O)N[C@@H](CC(C)C)C(=O)N[C@@H](C)C(=O)NCC(=O)N1CCC[C@H]1C(=O)O)[C@@H](C)CC)C(C)C)[C@@H](C)O and report it.
134

Find the recorded IC50 belonging to CC(C)C[C@H](NC(=O)[C@H](CCCCN)NC(=O)CNC(=O)[C@H](CO)NC(=O)[C@@H](NC(=O)[C@@H](NC(=O)[C@@H](NC(=O)[C@@H](NC(=O)[C@H](CCCNC(=N)N)NC(=O)[C@H](CC(C)C)NC(=O)[C@H](CO)NC(=O)[C@@H]1CCCN1C(=O)CNC(=O)[C@H](CCCNC(=N)N)NC(=O)[C@@H](N)[C@@H](C)O)[C@@H](C)O)[C@@H](C)O)[C@@H](C)O)C(C)C)C(=O)O and report it.
2280

====

Target: DRB3*0101 (Homo sapiens, UniProt P01903+P79483)
Test: biochemical
Format: binding
quantity: pIC50
pIC50 field: float, defined as -log10 of concentration (mol/L).

Answered examples (2):
{"compound_structure": "CC(C)C[C@H](NC(=O)[C@H](CCC(=O)O)NC(=O)[C@H](CC(C)C)NC(=O)[C@H](CCCCN)NC(=O)CNC(=O)[C@H](CC(C)C)NC(=O)[C@H](Cc1c[nH]cn1)NC(=O)[C@H](Cc1c[nH]c2ccccc12)NC(=O)[C@@H]1CCCN1C(=O)CNC(=O)[C@H](C)NC(=O)[C@@H](NC(=O)[C@H](CCC(N)=O)NC(=O)[C@@H](NC(=O)[C@@H](N)Cc1c[nH]cn1)[C@@H](C)O)[C@@H](C)O)C(=O)O", "pIC50": 5.88}
{"compound_structure": "CC[C@H](C)[C@H](NC(=O)[C@H](C)NC(=O)[C@@H](N)CCSC)C(=O)N[C@@H](CO)C(=O)NCC(=O)N[C@@H](CC(=O)O)C(=O)N[C@@H](CC(=O)O)C(=O)N[C@@H](CS)C(=O)N[C@H](C(=O)N[C@H](C(=O)N[C@@H](CCCCN)C(=O)N1CCC[C@H]1C(=O)N[C@H](C(=O)N[C@@H](CC(=O)O)C(=O)N[C@@H](CC(=O)O)C(=O)N[C@@H](CCCNC(=N)N)C(=O)N[C@@H](Cc1ccccc1)C(=O)O)[C@@H](C)CC)C(C)C)C(C)C", "pIC50": 5.71}

// next item, pIC50 requested
Find the recorded pIC50 belonging to CC(C)C[C@H](NC(=O)[C@H](C)NC(=O)[C@H](CC(C)C)NC(=O)[C@@H]1CCCN1)C(=O)N[C@@H](CCCCN)C(=O)N[C@@H](CCC(=O)O)C(=O)N[C@@H](Cc1ccccc1)C(=O)N[C@@H](CCCCN)C(=O)N[C@@H](CC(=O)O)C(=O)N[C@@H](Cc1ccccc1)C(=O)N[C@@H](C)C(=O)N[C@@H](C)C(=O)NCC(=O)N[C@@H](CCCNC(=N)N)C(=O)N[C@@H](CCCCN)C(=O)O and report it.
5.47
